Consider the following binders; for each one, report its Relative binding activity, %.
Target: T1, Biotin-huCGRPaSA (human, not fully specified; biotin (position not given))
T1 construct: exact construct ('aSA') not explained; also called Biotin CGRPaSA; full-length (1-37) CGRP
T1 peptide: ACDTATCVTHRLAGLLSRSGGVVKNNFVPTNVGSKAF
Assay: ELISA, supernatant; relative to chimeric C245

Challenge: I have this binder here, hu66 (antibody, V domains shown, 1F5 HC-4/1A2 LC2-1) VH: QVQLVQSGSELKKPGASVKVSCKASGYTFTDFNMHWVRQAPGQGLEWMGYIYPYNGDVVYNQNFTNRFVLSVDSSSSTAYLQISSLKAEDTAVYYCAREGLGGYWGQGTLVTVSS VL: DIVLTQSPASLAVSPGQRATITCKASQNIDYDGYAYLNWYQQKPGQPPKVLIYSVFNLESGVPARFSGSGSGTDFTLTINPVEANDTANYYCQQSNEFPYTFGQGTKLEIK , and I need its recorded Relative binding activity, %.
Response given: 129%

Challenge: Another binder to look at: hu218 (antibody, V domains shown, 3H10 HC-2/2B8 LC2-2) VH: QVQLVQSGAEVKKPGASVKVSCKASGYTFTDYNMHWVRQAPGQGLEWMGYIYPYNGHTVYNQKFRNRVTLTVDTSSSTAYMELRSLRSDDTAVYYCAREGLGGYWGQGTLVTVSS VL: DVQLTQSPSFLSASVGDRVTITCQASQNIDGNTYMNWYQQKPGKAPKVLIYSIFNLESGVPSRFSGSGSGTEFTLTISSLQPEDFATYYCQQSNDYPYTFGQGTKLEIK
Response given: 24%

Challenge: Another binder to look at: hu225 (antibody, V domains shown, 3C1 HC-1/3C1 LC-4) VH: QVQLVQSGAEVKKPGASVKVSCKASGYSFTGYTMNWVRQAPGQRLEWMGLINPYIGNTHYNQKFKDRVTFTVDRSSSTAYMELSSLRSEDTAVYYCARELDSGFDYWGQGTLVTVSS VL: DVVMTQSPDSLAVSLGERATINCRSSQNIVHSNADTYLEWYQQKPGQPPKLLIYKVSNRFSGVPDRFSGSGSGTDFTLTISSLQAEDVAVYYCYQGSHVPWTFGQGTKLEIK
Response given: 52%

Challenge: Another binder to look at: hu103 (antibody, V domains shown, 2A2 HC-1/3H10 LC2-1) VH: QVQLVQSGAEVKKPGASVKVSCKASGYTFTDYNMHWVRQAPGQRLEWMGYVYPYNGGSAYNQKFKSRVTLTVDTSSSTAYMELSSLRSEDTAVYYCAREGLGGYWGQGTLVTVSS VL: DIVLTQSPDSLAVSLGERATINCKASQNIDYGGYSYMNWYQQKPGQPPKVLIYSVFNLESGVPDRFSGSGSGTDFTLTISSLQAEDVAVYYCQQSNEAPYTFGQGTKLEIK
Response given: 88%

Challenge: Another binder to look at: hu224 (antibody, human IgG4 S228P, kappa, V domains shown) VH: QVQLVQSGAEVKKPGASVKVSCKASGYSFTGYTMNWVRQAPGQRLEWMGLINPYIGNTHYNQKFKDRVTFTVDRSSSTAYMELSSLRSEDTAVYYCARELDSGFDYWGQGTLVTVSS VL: DVVMTQSPDSLAVSLGERATINCRSSQNIVHSNGDTYLEWYQQKPGQPPKLLIYKVSNRFSGVPDRFSGSGSGTDFTLTISSLQAEDVAVYYCYQGSHVPWTFGQGTKLEIKR
Response given: 82%
